assay: qHTS of pediatric cancer cell lines to identify multiple opportunities for drug repurposing: Confirmatory screen for Rh41 cells (AID 1347123); settings: Rh41 rhabdomyosarcoma cells, viability/cytotoxicity qHTS; series mostly up to 45.9 µM;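 further: 48 h compound exposure; nearly all actives have a fitted effect of over 60% in size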
Results filed as inconclusive are left out. The source made the active and inactive calls. The call rests on the fitted dose curve; in most records, active means well fitted cell-killing curve with a large enough effect; inconclusive means small, poorly fitted or top-dose-only effect; inactive means no such curve, though single readings can be large or run the other way.
Outcomes: 1 = active, 0 = inactive

>>> answer_label("CCCS(=O)(=O)Nc1ccc(F)c(C(=O)c2c[nH]c3ncc(-c4ccc(Cl)cc4)cc23)c1F")
1
>>> answer_label("COc1cccc2cc(-c3nc(C4CCC(C(=O)O)CC4)n4ncnc(N)c34)[nH]c12 (stereo not drawn)")
1
>>> answer_label("COc1ccc(-c2oc3cc(OC)ccc3c2C(=O)c2ccc(C#N)cc2)cc1")
0

----------
assay: qHTS Screen of the MIPE 4.0 Collection Against Ewings Sarcoma (TC71) (AID 1259253); conditions: TC71 Ewing sarcoma viability, CellTiter-Glo, 48 h; series mostly up to 45.8 µM; further: nearly all actives have a fitted effect of over 40% in size
Records with an inconclusive call do not appear. Calls of active or inactive are those of the source. The call rests on the fitted dose curve; in most records, active means well fitted inhibition curve with a large enough effect; inconclusive means small, poorly fitted or top-dose-only effect; inactive means no such curve, though single readings can be large or run the other way.
Outcomes: active, inactive

>>> answer_label("O=C(O)[C@@H](c1ccc(OCc2ccc3ccccc3n2)cc1)C1CCCC1")
"inactive"
>>> answer_label("NS(=O)(=O)c1cc2c(cc1Cl)NC=NS2(=O)=O")
"inactive"
>>> answer_label("Cn1cnc([N+](=O)[O-])c1Sc1ncnc2nc[nH]c12")
"active"
>>> answer_label("S=C(NCc1ccc2c(c1)OCO2)N1CCN(c2ncnc3c2oc2ccccc23)CC1")
"active"
>>> answer_label("Nc1nc2c(ncn2COCCO)c(=O)[nH]1")
"inactive"
>>> answer_label("O=C(O)CCc1ccc(NCc2cccc(Oc3ccccc3)c2)cc1")
"inactive"
>>> answer_label("CC(=O)Oc1ccccc1C(=O)O")
"active"
>>> answer_label("CCn1c(-c2nonc2N)nc2c(C#CC(C)(C)O)ncc(OC[C@H]3CCCNC3)c21")
"active"
>>> answer_label("Nc1nc2[nH]cc(CCc3ccc(C(=O)N[C@@H](CCC(=O)O)C(=O)O)cc3)c2c(=O)[nH]1")
"active"
>>> answer_label("CS(=O)(=O)c1ccc(C(=O)Nc2ccc(Cl)c(-c3ccccn3)c2)c(Cl)c1")
"inactive"
>>> answer_label("CC[C@H](Nc1ncnc2nc[nH]c12)c1nc2cccc(F)c2c(=O)n1-c1ccccc1")
"active"
>>> answer_label("O=C(C1CC1)N1CC[C@@H](Cn2c(-c3ccc(-c4ccc5occc5c4)cc3)nc3cnccc32)C1")
"active"
>>> answer_label("COc1nc(-c2ccc3c(c2)OCO3)n(-c2ccc(NC(=O)CSc3ccccc3)cc2)n1")
"active"

----------
experiment: Cell Proliferation Assay Versus the ED40515 IL2 Dependent ATL cell lines (AID 1053195); details: ED40515 IL2-dependent ATL cells
Calls of active or inactive are those of the source. Calls follow the shape of the full dose curve.
measured-metric: Potency

>>> recorded_value("Nc1ncnc2nc(-c3ccc(N4CCOCC4)nc3)cc(-c3cccc(Br)c3)c12")
"14.8 µM (active)"
>>> recorded_value("CCC(C)(C)C(=O)O[C@H]1C[C@@H](C)C=C2C=C[C@H](C)[C@H](CC[C@@H]3C[C@@H](O)CC(=O)O3)[C@H]21")
"3.17 µM (active)"
>>> recorded_value("COc1cc(F)c(F)c(Nc2ccc(I)cc2F)c1NS(=O)(=O)C1(C[C@H](O)CO)CC1")
"37.2 µM (active)"
>>> recorded_value("CCc1ccc(CCOc2ccc(CC3SC(=O)NC3=O)cc2)nc1 (configuration not stated)")
"16.6 µM (active)"
>>> recorded_value("CN[C@@H](C)C(=O)N[C@H]1CCCC[C@H]2CC[C@@H](C(=O)N[C@@H](c3ccccc3)c3cn(CCCCc4ccc(CCCCn5cc([C@@H](NC(=O)[C@@H]6CC[C@@H]7CCCC[C@H](NC(=O)[C@H](C)NC)C(=O)N76)c6ccccc6)nn5)cc4)nn3)N2C1=O")
"23.5 µM (active)"
>>> recorded_value("Cc1cnc(Nc2ccc(OCCN3CCCC3)cc2)nc1Nc1cccc(S(=O)(=O)NC(C)(C)C)c1")
"20.9 µM (active)"
>>> recorded_value("O=C(O)c1ccc(-c2c[nH]c3ccc(-c4ccccc4)cc23)cc1C1CCCC1")
"5.26 µM (active)"
>>> recorded_value("OC[C@H](Cc1ccccc1)Nc1nc(Oc2ccc3c(c2)CCC3)nc2c1ncn2Cc1ccc(-c2ccccc2)cc1")
"13.2 µM (active)"
>>> recorded_value("COc1ccc(-c2ccc3c(N4CCOCC4)nc(N4C[C@@H](C)O[C@@H](C)C4)nc3n2)cc1CO")
"1.48 µM (active)"
>>> recorded_value("COc1ccc2nc(S(=O)Cc3ncc(C)c(OC)c3C)[nH]c2c1 (configuration not stated)")
"23.5 µM (active)"
>>> recorded_value("O=C(Nc1nc2ccccc2n1CCN1CCOCC1)c1cccc([N+](=O)[O-])c1")
"10.5 µM (active)"
>>> recorded_value("Fc1ccc(Cl)cc1-c1nc(Nc2ccncc2)c2nccnc2n1")
"13.2 µM (active)"

Reference for the values: PubChem BioAssay (NCATS)
